experiment: Aqueous solubility at pH 7.4 after 18 hrs by UV kinetic solubility method; format: physicochemical; details: aqueous medium
quantity kind: solubility kinetic at 18 h (µg/mL)

Cc1cc2nc(NCCCO)n(CC(=O)c3cc(C(C)(C)C)c(O)c(C(C)(C)C)c3)c2cc1C	0.7

---

test: Drug level in mouse blood at 30 mg/kg, ip after 3 hrs by LC/MS analysis; assay type: ADME, organism-based; set-up: dose 30 mg/kg, route intraperitoneal; details: whole blood, read-out: Drug uptake
quantity kind: concentration at 3 h

Cc1cc2nc(NCCCO)n(CC(=O)c3cc(C(C)(C)C)c(O)c(C(C)(C)C)c3)c2cc1C	3.64 µM

These measurements were taken from ChEMBL document CHEMBL1177698.
